# Lookup of reported EC50 (read off the curve) keyed by entry
assay.system: T1, human LILRB1 expressed on cells (human, UniProt Q8NHL6 24-650)
T1 construct: In 293T cells it was expressed from pCMV3-LILRB1-GFP; also called CHO-LILRB1; Jurkat-LILRB1
T1 sequence (Q8NHL6 other isoform, or with tags, fused parts or gaps limits assumed): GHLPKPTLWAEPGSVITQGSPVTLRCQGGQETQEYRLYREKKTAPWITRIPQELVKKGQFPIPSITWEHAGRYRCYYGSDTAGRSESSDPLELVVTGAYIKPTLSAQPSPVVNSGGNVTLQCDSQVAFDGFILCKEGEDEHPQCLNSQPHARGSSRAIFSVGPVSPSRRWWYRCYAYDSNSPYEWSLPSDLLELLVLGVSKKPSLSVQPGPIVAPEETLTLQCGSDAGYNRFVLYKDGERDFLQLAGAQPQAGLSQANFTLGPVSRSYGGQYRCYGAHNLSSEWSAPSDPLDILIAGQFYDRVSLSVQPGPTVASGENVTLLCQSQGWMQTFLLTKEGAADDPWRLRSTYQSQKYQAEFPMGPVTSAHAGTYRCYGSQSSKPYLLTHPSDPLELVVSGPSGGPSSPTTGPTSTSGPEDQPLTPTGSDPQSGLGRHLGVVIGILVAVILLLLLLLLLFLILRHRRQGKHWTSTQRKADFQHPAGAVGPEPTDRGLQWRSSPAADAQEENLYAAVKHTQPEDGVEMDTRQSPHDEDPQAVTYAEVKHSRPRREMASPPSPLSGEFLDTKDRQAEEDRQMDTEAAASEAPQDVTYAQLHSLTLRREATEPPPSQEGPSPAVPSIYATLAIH
method.notes: flow cytometry on CHO-LILRB1 cells (CHO-RB1), titrated antibody, labelled anti-human Fc, gMFI

Task item: Fill blank: measured EC50 (read off the curve) of the binder D2M002-026 (antibody, V domains shown, Hit; also called clone #26) VH: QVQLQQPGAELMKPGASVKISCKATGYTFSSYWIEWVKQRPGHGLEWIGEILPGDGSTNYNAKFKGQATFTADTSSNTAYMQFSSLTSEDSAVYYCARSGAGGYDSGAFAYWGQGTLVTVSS VL: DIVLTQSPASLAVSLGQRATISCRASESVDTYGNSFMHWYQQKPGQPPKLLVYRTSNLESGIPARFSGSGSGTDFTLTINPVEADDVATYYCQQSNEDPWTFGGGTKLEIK is ____.
Reply: ~0.4 µg/mL
